TARGET_OR_SYSTEM: MMP-13 (Homo sapiens, UniProt P45452)
Construct: catalytic domain (^104Tyr˜^267Gly) was amplified with RT-PCR; His-tag; enterokinase digestion-site; made in house
METHOD_DESCRIPTION: Assay for inhibitory activities on MMP-13
Type: biochemical
RUN_CONDITIONS: catalytic domain, substrate MOCAc-Pro-Leu-Gly-Leu-A2Pr(DNP)-Ala-Arg-NH2; read-out: MMP-13 (IC50μM)
Field: pIC50. Provide a value for each of the compounds that follow.
// pIC50 here means minus log10 of the molar concentration (mol/L)

input: What pIC50 appears in the records for this compound with MMP-13 (Homo sapiens, UniProt P45452)? CCOc1ccc(-c2ccc(S(=O)(=O)NC(CC(C)C)C(=O)O)s2)cc1 (stereo not shown) [Compound F-5]
output: 7.74

input: What pIC50 appears in the records for this compound with MMP-13 (Homo sapiens, UniProt P45452)? CSc1ccc(-c2ccc(-c3ccc(S(=O)(=O)N[C@@H](C(=O)O)C(C)C)cc3)cc2)cc1 [Compound E-21]
output: 8.70

input: What pIC50 appears in the records for this compound with MMP-13 (Homo sapiens, UniProt P45452)? CSc1ccc(-c2ccc(S(=O)(=O)N[C@@H](CCC(=O)O)C(=O)O)cc2)cc1 [Compound E-11]
output: 8.04

input: What pIC50 appears in the records for this compound with MMP-13 (Homo sapiens, UniProt P45452)? CC(C)C[C@@H](NS(=O)(=O)c1ccc(C#Cc2ccc3ccccc3c2)s1)C(=O)O [Compound H-10]
output: 5.86

----------
TARGET_OR_SYSTEM: MMP-13 (Homo sapiens, UniProt P45452)
Construct: catalytic domain (^104Tyr˜^267Gly) was amplified with RT-PCR; His-tag; enterokinase digestion-site; made in house
METHOD_DESCRIPTION: Assay for inhibitory activities on MMP-13
Format: biochemical
RUN_CONDITIONS: catalytic domain, substrate MOCAc-Pro-Leu-Gly-Leu-A2Pr(DNP)-Ala-Arg-NH2; read-out: MMP-13 (IC50μM)
Protocol: In regard to MMP-13, mRNA was prepared from carcinoma cell SW1353 derived from human cartilage stimulate by IL-1, TNF and catalytic domain (^[…]) was amplified with RT-PCR. This was cloned in Escherichia. coli expression vector […] inserted with His-tag sequence and enterokinase digestion-site, induced and expressed by IPTG (Isopropyl-β-D-thiogalactopyranoside) and expressed in a insoluble fraction. […] The enzymatic activity on MMP was analyzed by the method described in “C. […]
pIC50: −log10 of the molar value.
Please use Yes whenever pIC50 is not below 7, and No whenever it is.

input: // inclusive: pIC50 at least 7? input: CSc1ccc(-c2cnc(-c3ccc(S(=O)(=O)N[C@@H](C)C(=O)O)cc3)s2)cc1
output: Yes

input: // inclusive: pIC50 at least 7? input: O=C(O)[C@@H](Cc1ccccc1)NS(=O)(=O)c1ccc(-c2nc(-c3ccc(C(F)(F)F)cc3)no2)cc1
output: No

input: // inclusive: pIC50 at least 7? input: O=C(O)[C@@H](NS(=O)(=O)c1ccc(-c2ncc(-c3ccc(Cl)cc3)s2)cc1)c1ccccc1
output: Yes

input: // inclusive: pIC50 at least 7? input: O=C(O)[C@H](Cc1ccccc1)NS(=O)(=O)c1ccc(-c2noc(-c3ccc4cc(Br)ccc4c3)n2)cc1
output: No

input: // inclusive: pIC50 at least 7? input: O=C(O)[C@@H](Cc1ccccc1)NS(=O)(=O)c1ccc(-c2ncc(-c3ccc(Cl)c(Cl)c3)o2)cc1
output: Yes

input: // inclusive: pIC50 at least 7? input: COc1ccc(-c2ccc(S(=O)(=O)N[C@H](Cc3c[nH]c4ccccc34)C(=O)O)s2)cc1
output: Yes

----------
TARGET_OR_SYSTEM: MMP-13 (Homo sapiens, UniProt P45452)
Construct: catalytic domain (^104Tyr˜^267Gly) was amplified with RT-PCR; His-tag; enterokinase digestion-site; made in house
METHOD_DESCRIPTION: Assay for inhibitory activities on MMP-13
Assay type: biochemical
RUN_CONDITIONS: catalytic domain, substrate MOCAc-Pro-Leu-Gly-Leu-A2Pr(DNP)-Ala-Arg-NH2; read-out: MMP-13 (IC50μM)
MEASUREMENT_KIND: IC50

input: Suppose we examine the molecule NCCc1ccc(-n2nnc(-c3ccc(S(=O)(=O)N[C@H](Cc4ccccc4)C(=O)O)cc3)n2)cc1 ; what IC50 value has been reported?
output: 0.029 µM

input: Suppose we examine the molecule CSCC[C@@H](NS(=O)(=O)c1ccc(-c2ccc(SC)cc2)s1)C(=O)O ; what IC50 value has been reported?
output: 0.007 µM

input: Suppose we examine the molecule C[C@H](NS(=O)(=O)c1ccc(-c2ncc(-c3ccc4ccccc4c3)s2)cc1)C(=O)O ; what IC50 value has been reported?
output: 0.019 µM

input: Suppose we examine the molecule CC(C)C(NS(=O)(=O)c1ccc(-c2ccc(OC(F)(F)F)cc2)cc1)C(=O)O (stereo not drawn) ; what IC50 value has been reported?
output: 0.0141 µM

input: Suppose we examine the molecule Cc1ccc(C#Cc2ccc(S(=O)(=O)N[C@H](Cc3ccccc3)C(=O)O)s2)cc1F ; what IC50 value has been reported?
output: 0.0604 µM

input: Suppose we examine the molecule C[C@@H](NS(=O)(=O)c1ccc(-c2ccc(-n3cccc3)cc2)s1)C(=O)O ; what IC50 value has been reported?
output: 0.023 µM

input: Suppose we examine the molecule Cc1ccc(-c2ccc(-c3ccc(S(=O)(=O)N[C@H](Cc4ccccc4)C(=O)O)s3)s2)cc1 ; what IC50 value has been reported?
output: 0.109 µM

input: Suppose we examine the molecule CCc1ccc(-c2nc(-c3ccc(S(=O)(=O)N[C@H](Cc4ccccc4)C(=O)O)cc3)no2)cc1 ; what IC50 value has been reported?
output: 0.027 µM

input: Suppose we examine the molecule O=C(O)[C@@H](Cc1ccccc1)NS(=O)(=O)c1ccc(-c2nc(-c3ccc(Cl)c(Cl)c3)no2)cc1 ; what IC50 value has been reported?
output: 0.764 µM

input: Suppose we examine the molecule Cc1ccc(C#Cc2ccc(S(=O)(=O)N[C@H](Cc3c[nH]c4c(O)cccc34)C(=O)O)s2)cc1 ; what IC50 value has been reported?
output: 0.0113 µM

input: Suppose we examine the molecule CSc1ccc(-c2ccc(S(=O)(=O)NC(C)C(=O)O)cc2)cc1 (stereo not drawn) ; what IC50 value has been reported?
output: 0.0209 µM

input: Suppose we examine the molecule O=C(O)[C@@H](Cc1c[nH]c2ccccc12)NS(=O)(=O)c1ccc(-c2ncc(-c3ccc(F)c(F)c3)s2)cc1 ; what IC50 value has been reported?
output: 0.0061 µM

input: Suppose we examine the molecule CC(C)[C@H](NS(=O)(=O)c1ccc(-c2ccc(N3CCCC3)cc2)s1)C(=O)O ; what IC50 value has been reported?
output: 0.032 µM

input: Suppose we examine the molecule CC(C)c1ccc(-c2nc(-c3ccc(S(=O)(=O)N[C@H](CC(=O)O)C(=O)O)cc3)no2)cc1 ; what IC50 value has been reported?
output: 0.0196 µM

input: Suppose we examine the molecule Cc1ccc(-c2ccc(-c3ccc(S(=O)(=O)N[C@H](CC(C)C)C(=O)O)cc3)s2)cc1 ; what IC50 value has been reported?
output: 0.225 µM

----------
TARGET_OR_SYSTEM: MMP-13 (Homo sapiens, UniProt P45452)
Construct: catalytic domain (^104Tyr˜^267Gly) was amplified with RT-PCR; His-tag; enterokinase digestion-site; made in house
METHOD_DESCRIPTION: Assay for inhibitory activities on MMP-13
Assay type: biochemical
RUN_CONDITIONS: catalytic domain, substrate MOCAc-Pro-Leu-Gly-Leu-A2Pr(DNP)-Ala-Arg-NH2; read-out: MMP-13 (IC50μM)
Field: IC50. Provide a value for each of the compounds that follow.
Only the number, expressed in µM, is required.

input: What IC50 appears in the records for this compound with MMP-13 (Homo sapiens, UniProt P45452)? Cc1ccc(-c2ccc(S(=O)(=O)NC(C(=O)O)C(C)C)s2)cc1 (centres unmarked)
output: 0.811

input: What IC50 appears in the records for this compound with MMP-13 (Homo sapiens, UniProt P45452)? CSCC[C@@H](NS(=O)(=O)c1ccc(-c2ccc(-c3ccc(C)cc3)s2)cc1)C(=O)O
output: 0.0938

input: What IC50 appears in the records for this compound with MMP-13 (Homo sapiens, UniProt P45452)? CC(C)[C@@H](NS(=O)(=O)c1ccc(-c2ccc(-c3ccccc3)cc2)cc1)C(=O)O
output: 0.024

input: What IC50 appears in the records for this compound with MMP-13 (Homo sapiens, UniProt P45452)? Cc1ccc(-c2ccc(-c3ccc(S(=O)(=O)N[C@H](C)C(=O)O)cc3)s2)cc1
output: 0.095

input: What IC50 appears in the records for this compound with MMP-13 (Homo sapiens, UniProt P45452)? O=C(O)[C@@H](Cc1ccccc1)NS(=O)(=O)c1ccc(C#Cc2ccc3c(c2)OCO3)s1
output: 0.044

input: What IC50 appears in the records for this compound with MMP-13 (Homo sapiens, UniProt P45452)? CC(C)[C@H](NS(=O)(=O)c1ccc(-c2ncc(-c3ccc(Br)cc3)s2)cc1)C(=O)O
output: 0.002

input: What IC50 appears in the records for this compound with MMP-13 (Homo sapiens, UniProt P45452)? CSCC[C@@H](NS(=O)(=O)c1ccc(-c2noc(-c3ccc(C(C)C)cc3)n2)cc1)C(=O)O
output: 0.018

input: What IC50 appears in the records for this compound with MMP-13 (Homo sapiens, UniProt P45452)? CCSc1ccc(-c2ccc(S(=O)(=O)NC(Cc3ccccc3)C(=O)O)cc2)cc1 (centres unmarked)
output: 0.0142
